Cited source for all entries: patent US10464930B2

Tested on: isolated aortic rings
Assay: Aortic ring relaxation
Settings: Rattus norvegicus, read-out: EC50 for relaxation, L-NAME
Measurement Label: pEC50
Please express pEC50 as -log10 of the molar concentration.

What the record says about O=[N+]([O-])OCCCC1CCN(CCOc2ccc(Oc3c(-c4ccc(O)cc4)sc4cc(O)ccc34)cc2)CC1 : pEC50 is 6.00

====

Target: ERα (Homo sapiens, UniProt P03372)
Sequence (P03372 1-595): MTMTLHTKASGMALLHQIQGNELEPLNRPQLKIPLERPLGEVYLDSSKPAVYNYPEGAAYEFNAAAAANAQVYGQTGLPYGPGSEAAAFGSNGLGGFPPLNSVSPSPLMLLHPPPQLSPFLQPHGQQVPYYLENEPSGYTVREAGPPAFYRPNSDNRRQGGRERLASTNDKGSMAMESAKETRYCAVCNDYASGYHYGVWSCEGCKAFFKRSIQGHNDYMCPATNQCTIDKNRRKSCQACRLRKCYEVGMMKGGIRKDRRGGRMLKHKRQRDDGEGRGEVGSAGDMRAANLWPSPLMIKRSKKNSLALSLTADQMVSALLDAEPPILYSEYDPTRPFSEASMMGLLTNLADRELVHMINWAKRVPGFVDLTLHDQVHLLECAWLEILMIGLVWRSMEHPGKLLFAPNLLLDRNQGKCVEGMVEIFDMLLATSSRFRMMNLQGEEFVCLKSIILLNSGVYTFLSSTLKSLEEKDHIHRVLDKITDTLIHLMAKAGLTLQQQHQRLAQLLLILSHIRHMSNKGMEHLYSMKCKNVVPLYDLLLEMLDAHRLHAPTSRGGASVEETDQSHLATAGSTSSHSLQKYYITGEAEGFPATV
Assay: ER ligand binding by competitive E2 displacement (ERα)
Details: competitive E2 displacement
Measurement Label: IC50 (nM)
Numeric only. Scale: nM

What the record says about Oc1ccc2c(Oc3ccc(OCCN4CCCCC4)cc3)c(-c3ccc(F)cc3)sc2c1 : IC50 is 17
